Test system: Shigella sonnei II 37148
Experiment: MIC against bacteria (Table I), strain (12)
Assay type: cell-based
Conditions: Shigella sonnei, II37148
Description: Now, for illustrating the excellent pharmacological effects of the compounds of this invention, the values of MIC (γ/ml.) of the compounds against various bacteria are shown in Table 1, in which the compounds of this invention used are shown by example numbers.
Consider the following compounds and their measured MIC readings.
# unit: µg/mL | format: bare number

Reference set, count: 3
{"compoundStructure": "Cc1cncc(C(=O)N[C@@H](C(=O)N[C@@H]2C(=O)N3C(C(=O)O)=C(CSc4nnc(SCC(=O)O)s4)CS[C@H]23)c2ccccc2)c1O", "unitsText": "µg/mL", "MIC": 3.13}
{"compoundStructure": "O=C(O)CSc1nnc(SCC2=C(C(=O)O)N3C(=O)[C@@H](NC(=O)[C@H](NC(=O)c4cnccc4O)c4ccc(O)cc4)[C@H]3SC2)s1", "unitsText": "µg/mL", "MIC": 3.13}
{"compoundStructure": "O=C(O)CSc1nnc(SCC2=C(C(=O)O)N3C(=O)[C@@H](NC(=O)[C@H](NC(=O)c4csccc4=O)c4ccc(O)cc4)[C@H]3SC2)s1", "unitsText": "µg/mL", "MIC": 3.13}

Kindly consider the entry below.
Lab entry: Shigella sonnei II 37148 assay, compound O=C(O)CSc1nnc(SCC2=C(C(=O)O)N3C(=O)[C@@H](NC(=O)[C@H](NC(=O)c4csccc4=O)c4ccccc4)[C@H]3SC2)s1 , MIC = 6.25
